measuredTarget: Adrenergic receptor alpha-2 (Rattus norvegicus, UniProt P22086+P19328+P22909)
assayProcedure: Binding affinity to the alpha-2 adrenergic receptor of rat cerebral cortex assayed using [3H]idazoxan as radioligand
Type: tissue-based
Below is a list of entries, each paired with its recorded Log Ki value.
Reply with the value as a number alone.

These solved cases illustrate the format of a correct answer.
{"columns": ["givenSmiles", "Log Ki"],
 "data": [
  ["Cl.Cl.Fc1cccc2c1CCN(CC1=NCCN1)C2", -8.39],
  ["Cl.Cl.Clc1cccc2c1CCN(CC1=NCCN1)C2", -7.8]
]}

Now for a further compound.
Given the compound Cl.Cl.Clc1cccc2c1CN(CC1=NCCN1)C2 , write its reported Log Ki.
-8.38
